- Test system: UO-31
- Assay details: 2-day cell growth assay, UO-31
- Assay type: cell-based, human
- Condition info: Homo sapiens, UO-31, 48 h, 2-day cell growth assay, sensitive renal line; read-out: UO-31 IC50
Result type: IC50 (µM)

compound="CC1CCC2C1C(OC(=O)C(Cl)C(Cl)c1ccccc1)C1(C(C)C)CC(OC(=O)CO)C2(C)O1 (single isomer, unassigned) [2′,3′-Dichlorodihydroenglerin A (epimer 1)]" value_observed=1.2
compound="CCOC(c1ccccc1)C(Cl)C(=O)OC1C2C(C)CCC2C2(C)OC1(C(C)C)CC2OC(=O)CO (centres unmarked) [2′-Chloro,3′-ethoxydihydroenglerin A]" value_observed=18

----------
GI50 tested on ACHN: recorded values
Result type: GI50 (nM)

compound="CC1CCC2C1C(OC(=O)C(Cl)C(Cl)c1ccccc1)C1(C(C)C)CC(OC(=O)CO)C2(C)O1 (single isomer, unassigned) [2′,3′-Dichlorodihydroenglerin A (epimer 1)]" scale_unit=nM value_observed=140
compound="CC1CCC2C1C(OC(=O)C(Cl)C(Cl)c1ccccc1)C1(C(C)C)CC(OC(=O)CO)C2(C)O1 (single isomer, unassigned) [2′,3′-Dichlorodihydroenglerin A (epimer 2)]" scale_unit=nM value_observed=320
compound="CC(C)[C@@]12C[C@@H](OC(=O)CO)[C@@](C)(O1)[C@@H]1CC[C@@H](C)[C@H]1[C@@H]2OC(=O)/C(Cl)=C/c1ccccc1 [2′-Chloroenglerin A]" scale_unit=nM value_observed=41
compound="CC1CCC2C1C(OC(=O)C(Cl)C(O)c1ccccc1)C1(C(C)C)CC(OC(=O)CO)C2(C)O1 (single isomer, unassigned) [2′-Chloro,3′-hydroxydihydroenglerin (epimer 2)]" scale_unit=nM value_observed=1380
compound="CC1CCC2C1C(OC(=O)C(Cl)C(O)c1ccccc1)C1(C(C)C)CC(OC(=O)CO)C2(C)O1 (single isomer, unassigned) [2′-Chloro,3′-hydroxydihydroenglerin (epimer 1)]" scale_unit=nM value_observed=320

----------
- Tested on: 786-0
- Assay details: NCI 60-cell line protocol, 786-0
- Type: cell-based, human
- Condition info: two days exposure, SRB endpoint
Result type: GI50 (µM)

compound="CC1CCC2C1C(OC(=O)C(Cl)C(Cl)c1ccccc1)C1(C(C)C)CC(OC(=O)CO)C2(C)O1 (single isomer, unassigned) [2′,3′-Dichlorodihydroenglerin A (epimer 2)]" result_type=GI50 value_observed=12
compound="CC1CCC2C1C(OC(=O)C(Cl)C(O)c1ccccc1)C1(C(C)C)CC(OC(=O)CO)C2(C)O1 (single isomer, unassigned) [2′-Chloro,3′-hydroxydihydroenglerin (epimer 2)]" result_type=GI50 value_observed=11
compound=CC(C)[C@@]12C[C@@H](OC(=O)CO)[C@@](C)(O1)[C@@H]1CC[C@@H](C)[C@H]1[C@@H]2OC(=O)/C(Cl)=C/c1ccccc1 result_type=GI50 value_observed=10
compound="CC1CCC2C1C(OC(=O)C(Cl)C(O)c1ccccc1)C1(C(C)C)CC(OC(=O)CO)C2(C)O1 (single isomer, unassigned) [2′-Chloro,3′-hydroxydihydroenglerin (epimer 1)]" result_type=GI50 value_observed=1.7

----------
- System: A498
Labelling field: enter Yes if recorded GI50 is less than 100 nM. Enter No if it equals or exceeds that cut-off.

compound="CC1CCC2C1C(OC(=O)C(Cl)C(O)c1ccccc1)C1(C(C)C)CC(OC(=O)CO)C2(C)O1 (single isomer, unassigned) [2′-Chloro,3′-hydroxydihydroenglerin (epimer 2)]" label_class=No
compound="CC1CCC2C1C(OC(=O)C(Cl)C(O)c1ccccc1)C1(C(C)C)CC(OC(=O)CO)C2(C)O1 (single isomer, unassigned) [2′-Chloro,3′-hydroxydihydroenglerin (epimer 1)]" label_class=No
compound="CC1CCC2C1C(OC(=O)C(Cl)C(Cl)c1ccccc1)C1(C(C)C)CC(OC(=O)CO)C2(C)O1 (single isomer, unassigned) [2′,3′-Dichlorodihydroenglerin A (epimer 2)]" label_class=Yes
compound="CC1CCC2C1C(OC(=O)C(Cl)C(Cl)c1ccccc1)C1(C(C)C)CC(OC(=O)CO)C2(C)O1 (single isomer, unassigned) [2′,3′-Dichlorodihydroenglerin A (epimer 1)]" label_class=No
compound=CC(C)[C@@]12C[C@@H](OC(=O)CO)[C@@](C)(O1)[C@@H]1CC[C@@H](C)[C@H]1[C@@H]2OC(=O)/C(Cl)=C/c1ccccc1 label_class=Yes

The measured values listed here are drawn from patent US8410292B2.
